Assign Activity to each entry below.
- SYSTEM TESTED: Metabotropic glutamate receptor 4 (Homo sapiens, UniProt Q14833)
- Sequence (Q14833 whole entry): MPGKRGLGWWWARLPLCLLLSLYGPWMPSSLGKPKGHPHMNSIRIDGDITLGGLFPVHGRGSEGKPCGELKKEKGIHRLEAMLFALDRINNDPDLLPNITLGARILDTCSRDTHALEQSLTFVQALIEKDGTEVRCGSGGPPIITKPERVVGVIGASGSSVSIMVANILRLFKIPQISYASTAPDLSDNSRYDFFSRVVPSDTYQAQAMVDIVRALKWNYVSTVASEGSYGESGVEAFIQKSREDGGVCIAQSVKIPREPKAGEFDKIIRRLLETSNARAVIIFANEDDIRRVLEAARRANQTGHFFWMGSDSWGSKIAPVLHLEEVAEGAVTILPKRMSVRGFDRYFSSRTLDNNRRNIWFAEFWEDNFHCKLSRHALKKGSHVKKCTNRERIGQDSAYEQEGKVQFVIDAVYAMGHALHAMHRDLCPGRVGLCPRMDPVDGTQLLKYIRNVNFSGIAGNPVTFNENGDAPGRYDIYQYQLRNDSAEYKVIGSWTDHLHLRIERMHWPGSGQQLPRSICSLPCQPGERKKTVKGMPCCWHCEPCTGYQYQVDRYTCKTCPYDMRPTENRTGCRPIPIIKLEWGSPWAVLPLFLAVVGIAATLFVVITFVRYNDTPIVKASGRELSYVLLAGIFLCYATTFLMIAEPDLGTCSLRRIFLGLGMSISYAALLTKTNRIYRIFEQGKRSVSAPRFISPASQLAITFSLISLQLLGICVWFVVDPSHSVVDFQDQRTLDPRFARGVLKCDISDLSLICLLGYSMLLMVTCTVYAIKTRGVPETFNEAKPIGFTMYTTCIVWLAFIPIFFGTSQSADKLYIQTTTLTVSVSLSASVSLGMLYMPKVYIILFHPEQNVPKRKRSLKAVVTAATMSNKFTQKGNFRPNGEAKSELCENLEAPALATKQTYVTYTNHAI
- ASSAY TEXT: Positive allosteric modulation of human mGlu4 receptor expressed in CHO cells coexpressing Gqi5 assessed as potentiation of glutamate-induced calcium mobilization relative to (-)-PHCCC
- Type: functional, cell-based
Give bare numbers, in %.

Solved cases below.
COMPOUND STRUCTURE STRING: O=C(Nc1ccc(N2S(=O)(=O)c3ccccc3S2(=O)=O)cc1)c1ccncn1
OBS VALUE: 100

COMPOUND STRUCTURE STRING: O=C(Nc1ccc(N2CCCS2(=O)=O)cc1)c1ccccn1
OBS VALUE: 25

COMPOUND STRUCTURE STRING: O=C(Nc1ccc(N2S(=O)(=O)c3ccccc3S2(=O)=O)cc1)c1ccncc1
OBS VALUE: 22.3

COMPOUND STRUCTURE STRING: O=C(Nc1ccc(N2S(=O)(=O)c3ccccc3S2(=O)=O)cc1)c1ccccc1
OBS VALUE: 65

COMPOUND STRUCTURE STRING: O=S1(=O)c2ccccc2S(=O)(=O)N1c1ccc(NCc2ccccn2)cc1
OBS VALUE: 110

COMPOUND STRUCTURE STRING: O=C(Nc1ccc(N2S(=O)(=O)c3ccccc3S2(=O)=O)cc1)c1cccnc1
OBS VALUE: 27.7

COMPOUND STRUCTURE STRING: O=C(Nc1ccc(N2C(=O)[C@@H]3[C@H](C2=O)[C@@H]2CC[C@H]3O2)c(Cl)c1)c1ccccn1
OBS VALUE: 90

COMPOUND STRUCTURE STRING: O=C(Nc1ccc(N2C(=O)CCC2=O)c(Cl)c1)c1ccccn1
OBS VALUE: 74

COMPOUND STRUCTURE STRING: O=C(Nc1ccc(N2C(=O)c3cccc(Cl)c3C2=O)c(Cl)c1)c1ccccn1
OBS VALUE: 130

Okay, now this compound:
The compound identified as `O=C(Nc1ccc(N2C(=O)c3ccccc3C2=O)c(Cl)c1)c1ccccn1` registered its Activity at 104

====

- SYSTEM TESTED: Metabotropic glutamate receptor 4 (Homo sapiens, UniProt Q14833)
- ASSAY TEXT: Positive allosteric modulation of human mGlu4 receptor expressed in CHO cells coexpressing Gqi5 assessed as potentiation of glutamate-induced calcium mobilization relative to (-)-PHCCC
- Type: functional, cell-based
Assign Activity to each entry below.
One number for each entry, in %.

COMPOUND: O=C(Nc1ccc(N2S(=O)(=O)c3ccccc3S2(=O)=O)cc1)c1cncs1
Activity [%]: 39.7

Would you be so kind as to report Activity for each listed record?
1. O=C(Nc1ccc(N2S(=O)(=O)c3ccccc3S2(=O)=O)cc1)c1nccs1
2. CC1(c2ccccc2)CC(=O)N(c2ccc(NC(=O)c3ccccn3)cc2Cl)C1=O (racemic)
3. O=C(Nc1ccc(N2C(=O)[C@@H]3[C@H](C2=O)[C@H]2C=C[C@@H]3CC2)c(Cl)c1)c1ccccn1
4. O=C(Nc1ccc(N2S(=O)(=O)c3ccccc3S2(=O)=O)cc1)c1ccco1
5. O=C(Nc1ccc(N2C(=O)CC3(CCCCC3)C2=O)c(Cl)c1)c1ccccn1
6. CC1(C)CC(=O)N(c2ccc(NC(=O)c3ccccn3)cc2Cl)C1=O
7. O=C(Nc1ccc(N2S(=O)(=O)c3ccccc3S2(=O)=O)cc1F)c1ccccn1

Return:
122
124
120
110
78.7
82
67.7

The compound identified as `O=C(Nc1ccc(N2C(=O)[C@H]3CCCC[C@H]3C2=O)c(Cl)c1)c1ccccn1` registered its Activity at 107
